Assignment: determine reported pIC50 for the given compounds.
Tested on: SKOV-3 cell line
assay_procedure: MTT cytotoxicity assay, cisplatin-resistant SKOV-3 cells, with or without BSO
Type: cell-based, Human
recorded_conditions: Table 4; SKOV-3; BSO at sub-MTC; read-out: IC50 +BSO (MTC)
Give bare numbers, as −log10 of the molar value.

As a guide, the following entries are already answered.
>  <compound>
[NH2][Pt]([OH])([OH])([Cl])([Cl])[N]1CCCCCC1 [Complex 18]

>  <pIC50>
4.85

$$$$
>  <compound>
N.N.[Cl][Pt][Cl] [Complex 1, cis-diamminedichloroplatinum, reference compound]

>  <pIC50>
4.68

$$$$

Read the next record carefully.
Prompt: Tell me reported pIC50 for CC(=O)[O][Pt]([NH2])([Cl])([Cl])([O]C(C)=O)[N]1CCCCCC1 [Complex 19] , tested with SKOV-3 cell line.
Response: 4.67
